The reported measurements were obtained from ChEMBL document CHEMBL1133804.

System: Rattus norvegicus
procedure.summary: Anti-inflammatory activity in vivo by carrageenan paw edema assay in rat at a dose of 30 mg/kg
Type: functional
Task for the reader: assign each of the following compounds its reported inhibition in vivo at 30 mg/kg.
One number for each entry, in %.

Parameters: items (list). Returns: inhibition in vivo at 30 mg/kg for each item.
1. COc1ccc2c(Cc3ccc(F)cc3)ccc(C(C)C(=O)O)c2c1 (centres undefined)
2. COc1ccc2c(Cc3ccccc3)ccc(C(C)C(=O)O)c2c1 (centres undefined)
3. COc1ccc2c(Cc3cccc(Cl)c3)ccc(C(C)C(=O)O)c2c1 (centres undefined)
4. COc1ccc2c(Cc3ccc(Cl)cc3)ccc(CC(=O)O)c2c1
5. COc1ccc2c(Cc3ccccc3Cl)ccc(C(C)C(=O)O)c2c1 (centres undefined)
6. COc1ccc2c(Cc3ccc(C(C)(C)C)cc3)ccc(C(C)C(=O)O)c2c1 (centres undefined)
7. COc1ccc(Cc2ccc(C(C)C(=O)O)c3cc(OC)ccc23)cc1 (centres undefined)
8. COc1ccc2c(Cc3ccc(C)cc3)ccc(C(C)C(=O)O)c2c1 (centres undefined)

1. 53
2. 58
3. 0
4. 52
5. 13
6. 32
7. 45
8. 49

Batch request: inhibition in vivo at 30 mg/kg for each of the following compounds.
1. COc1ccc2c(Cc3ccc(Cl)cc3)ccc(C(C)C(=O)O)c2c1 (centres undefined)
2. CSc1ccc2c(Cc3ccc(Cl)cc3)ccc(C(C)C(=O)O)c2c1 (centres undefined)
3. Cc1ccc(-c2cc(C(F)(F)F)nn2-c2ccc(S(N)(=O)=O)cc2)cc1 [CELECOXIB]

1. 50
2. 16
3. 40

I would be grateful if you could provide inhibition in vivo at 30 mg/kg for each of the following entries.
1. CCOc1ccc(Cc2ccc(C(C)C(=O)O)c3cc(OC)ccc23)cc1 (centres undefined)
2. CC(C(=O)O)c1ccc(Cc2ccc(F)cc2)c2ccccc12 (centres undefined)

52
16

What inhibition in vivo at 30 mg/kg value was documented for this compound, CCc1ccc(Cc2ccc(C(C)C(=O)O)c3cc(OC)ccc23)cc1 (centres undefined) ?
32
